Data origin, for the record: patent US20030170730A1

biological target: MRP1 (Homo sapiens, UniProt P33527); assay: ATP-dependent tracer (LTC4, NEM-GS) uptake in Sf9 membrane vesicles containing MRP1; settings: read-out: Km for transport of NEM-GS; wild-type MRP1, Sf9 membrane vesicles, 37° C.
Sequence (P33527 whole entry): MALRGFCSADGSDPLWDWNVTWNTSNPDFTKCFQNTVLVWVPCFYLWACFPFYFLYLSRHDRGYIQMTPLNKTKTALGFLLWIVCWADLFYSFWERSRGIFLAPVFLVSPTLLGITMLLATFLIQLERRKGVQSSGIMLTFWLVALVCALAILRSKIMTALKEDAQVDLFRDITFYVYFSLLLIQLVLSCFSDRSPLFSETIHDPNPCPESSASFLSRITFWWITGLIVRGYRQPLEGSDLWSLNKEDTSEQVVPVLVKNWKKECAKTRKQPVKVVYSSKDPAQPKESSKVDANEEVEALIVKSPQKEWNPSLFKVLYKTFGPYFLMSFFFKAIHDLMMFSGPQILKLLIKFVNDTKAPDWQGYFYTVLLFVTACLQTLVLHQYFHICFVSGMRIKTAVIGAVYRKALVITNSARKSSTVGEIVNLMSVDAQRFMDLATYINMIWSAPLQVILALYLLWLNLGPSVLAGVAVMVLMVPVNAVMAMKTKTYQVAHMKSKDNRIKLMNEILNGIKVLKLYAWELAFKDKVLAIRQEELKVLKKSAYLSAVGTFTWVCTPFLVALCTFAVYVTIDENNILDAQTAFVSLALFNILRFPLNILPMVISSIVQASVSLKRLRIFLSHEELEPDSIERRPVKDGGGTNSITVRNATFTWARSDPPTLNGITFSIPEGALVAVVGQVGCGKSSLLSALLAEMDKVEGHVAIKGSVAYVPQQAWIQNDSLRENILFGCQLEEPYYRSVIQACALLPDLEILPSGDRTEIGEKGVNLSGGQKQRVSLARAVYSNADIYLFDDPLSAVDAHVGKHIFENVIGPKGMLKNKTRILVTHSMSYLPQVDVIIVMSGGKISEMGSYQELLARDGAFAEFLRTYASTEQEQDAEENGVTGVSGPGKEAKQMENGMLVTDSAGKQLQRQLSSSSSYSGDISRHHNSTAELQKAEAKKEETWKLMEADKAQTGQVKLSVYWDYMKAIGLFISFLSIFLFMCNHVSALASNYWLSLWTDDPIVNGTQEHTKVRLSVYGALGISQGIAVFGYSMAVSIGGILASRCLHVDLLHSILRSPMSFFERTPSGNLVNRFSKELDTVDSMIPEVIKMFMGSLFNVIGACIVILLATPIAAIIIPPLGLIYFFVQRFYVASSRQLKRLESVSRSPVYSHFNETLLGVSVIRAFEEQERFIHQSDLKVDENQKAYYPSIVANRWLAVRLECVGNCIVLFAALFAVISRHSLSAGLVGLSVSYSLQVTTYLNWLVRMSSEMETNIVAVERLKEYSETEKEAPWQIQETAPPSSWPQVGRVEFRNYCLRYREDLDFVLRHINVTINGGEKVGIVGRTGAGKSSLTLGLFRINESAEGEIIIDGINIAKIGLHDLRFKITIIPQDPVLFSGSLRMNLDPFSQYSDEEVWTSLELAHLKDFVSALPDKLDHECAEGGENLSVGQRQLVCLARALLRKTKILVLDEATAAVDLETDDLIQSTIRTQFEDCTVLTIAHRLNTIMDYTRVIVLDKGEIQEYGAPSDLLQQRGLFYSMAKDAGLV
METRIC_NAME: Km (µM)
Give bare numbers, in µM.

Q: Enter reported Km observed with MRP1 (Homo sapiens, UniProt P33527) for CCN1C(=O)CC(SC[C@H](NC(=O)CC[C@H](N)C(=O)O)C(=O)NCC(=O)O)C1=O (stereo partly shown)
Result: 150
